test_protocol: Cmax in SCID/Beige mouse xenografted with human PC3 cells at 100 mg/kg, po BID for 10 days
Type: ADME, organism-based, PC-3
Parameters: dose 100 mg/kg, route oral
cond: in vivo
measured_property: Cmax (ng/mL)
Form entry: value (ng/mL) — number only.

Short answer for CCc1c[nH]c2ncnc(N3CC[C@](N)(CNC(=O)c4ccc(F)cc4F)C3)c12 : Cmax was 3050

----------
test_protocol: Cmax in SCID/Beige mouse xenografted with human PC3 cells at 75 mg/kg, po BID for 10 days
Format: ADME, organism-based, PC-3
Set-up: dose 75 mg/kg, route oral
cond: in vivo
measured_property: Cmax
Give your result as the value with the unit written after it.

Short answer for CCc1c[nH]c2ncnc(N3CC[C@](N)(CNC(=O)c4ccc(F)cc4F)C3)c12 : Cmax was 2 µg/mL
